Tested on: NCI/ADR-RES
Measurement notes: NCI tumour cell line growth inhibition, 48 h
Active and inactive are the calls of the source. No stated cut-off is given here; in the data, active = GI50 up to about 1.1 µM and inactive = higher.
Result category, one only: active, inactive

Could you kindly confirm the outcome this assay logged for CC(C)C1CC=NN1C(=O)OC(C)(C)C (stereo unspecified) ?
inactive

Could you kindly confirm the outcome this assay logged for O=C(C/C(=N/O)c1cc(-c2ccccc2)no1)c1ccccc1 ?
inactive

Could you kindly confirm the outcome this assay logged for c1ccc(C(OCCN2CC3CCC(C2)N3)c2ccccc2)cc1 ?
inactive

Could you kindly confirm the outcome this assay logged for CC(C)SC(=S)Sc1c(Cl)c(Cl)nc(Cl)c1Cl ?
inactive

Could you kindly confirm the outcome this assay logged for CC(=O)Nc1ccc(-c2nc3cc(Cl)ccc3o2)cc1 ?
inactive

Could you kindly confirm the outcome this assay logged for N#CCCC1(CCC#N)S(=O)(=O)OCCOS1(=O)=O ?
inactive

Could you kindly confirm the outcome this assay logged for COCC12CCC(OC)C34C5CC6(O)C(OC)C=C(C5C6OC(=O)c5ccccc5)C(C(OC)C13)C4N(C)C2 (stereo unspecified) ?
inactive

Could you kindly confirm the outcome this assay logged for Nc1nc(N)c2cc(CNc3ccc(C(=O)NC(CC(=O)O)C(=O)O)c(Cl)c3)ccc2n1 (stereo unspecified) ?
active

Could you kindly confirm the outcome this assay logged for CCSC1=N/C(=C\c2ccco2)C(NN)=N1 ?
inactive

Could you kindly confirm the outcome this assay logged for O=C(NC(=S)Nc1ccc(Br)cc1)c1ccc2c(c1)Sc1ccccc1S2 ?
inactive

Could you kindly confirm the outcome this assay logged for COc1ccc(C2=C(N)c3ccccc3C2=O)cc1 ?
inactive
